Experiment: qHTS assay to identify small molecule antagonists of the estrogen receptor beta (ER-beta) signaling pathway - cell viability counter screen (AID 1259382);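 also: HEK293T cells carrying ER-beta-UAS-bla reporter stimulated with estradiol; nearly all actives have a fitted effect of over 55% in size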
Details: ER-beta-UAS-bla HEK293T viability, CellTiter-Glo luminescence, 16 h; series mostly up to 92.4 µM
Inconclusive results are not listed. Calls of active or inactive are those of the source. Calls follow the shape of the dose curve; as a rule, active = well fitted cell-killing curve with a large enough effect in the repeat runs; inconclusive = weak or mixed curves; inactive = flat fitted curve, though single readings scatter.
Mark one answer only. Choices: active, inactive

Illustrative cases are given below, each with its answer.
Nc1ccc(-c2ccc(N)c(N)c2)cc1N
inactive
CC(C)N(C(=O)SCC(Cl)=C(Cl)Cl)C(C)C
inactive
CCC(C)(c1ccc(O)cc1)c1ccc(O)cc1
inactive

Prompt: What did the test return for NCc1cccnc1 ?
Completion: inactive

Prompt: Item: CCc1cccc(CC)c1N(COC)C(=O)CCl
Completion: inactive

Prompt: Item: Oc1cc(Cl)ccc1Cl
Completion: inactive

Prompt: Item: Cc1cc(C)cc(C)c1
Completion: inactive

Prompt: Item: Cc1cc(Cl)ccc1OCCCC(=O)O
Completion: inactive

Prompt: Item: N#CCCCl
Completion: inactive

Prompt: Item: CC1(C)C(C=C(Cl)Cl)C1C(=O)OC(C#N)c1cccc(Oc2ccccc2)c1 (centres undefined)
Completion: inactive

---

Assay: A CellTox Green Cytotoxicity Assay to monitor cytotoxicity in HEK293 cells - 40 hour (AID 1224871); also: nearly all actives have a fitted effect of over 45% in size; also: potency is read from the fitted curve at half-maximal effect
Settings: CellTox Green fluorescence; series mostly up to 76.8 µM
Records with an inconclusive call do not appear. Activity calls are given as the source filed them. Calls come from the whole dose curve; as a rule, active = well fitted activation curve with a large enough effect in the repeat runs; inconclusive = weak or mixed curves; inactive = flat fitted curve, though single readings scatter.
metric: Potency

Solved entries:
C=C(C)[C@H]1Cc2c(ccc3c2O[C@@H]2COc4cc(OC)c(OC)cc4[C@@H]2C3=O)O1
inactive
Cc1ccccc1[N+](=O)[O-]
inactive
CCCCC(CC)COC(=O)c1ccc(C(=O)OCC(CC)CCCC)c(C(=O)OCC(CC)CCCC)c1 (stereo unspecified)
inactive
CCCCC(CC)COC(=O)Cl (stereo unspecified)
inactive
C1=Cc2cccc3cccc1c23
49 µM (active)

Prompt: Recorded Potency for CC(C)(c1cc(Cl)c(O)c(Cl)c1)c1cc(Cl)c(O)c(Cl)c1 , please?
Completion: inactive

Prompt: Item: Oc1cc(Cl)ccc1Cl
Completion: inactive

Prompt: Item: Nc1ccc(Cl)c(Cl)c1
Completion: inactive

Prompt: Item: CC(C)NC(C)C
Completion: inactive

Prompt: Item: Brc1ccc(Oc2cc(Br)c(Br)cc2Br)c(Br)c1
Completion: inactive

Prompt: Item: CCOc1cc(Oc2ccc(C(F)(F)F)cc2Cl)ccc1[N+](=O)[O-]
Completion: inactive

Prompt: Item: CCN(CC)N=O
Completion: inactive

Prompt: Item: C=CCN(CC=C)C(=O)C(Cl)Cl
Completion: inactive

Prompt: Item: OCC(O)CO
Completion: inactive

Prompt: Item: Cc1cc(C)cc(C)c1
Completion: inactive

Prompt: Item: Cc1ccc(N)c(N)c1
Completion: inactive

Prompt: Item: CCCCCCOC(=O)c1ccccc1C(=O)OCCCCCC
Completion: inactive

Prompt: Item: Cc1ccc(OP(=O)(Oc2ccc(C)cc2)Oc2ccc(C)cc2)cc1
Completion: inactive

---

Target: Cytochrome P450 1A2 (Homo sapiens) (UniProt P05177)
Sequence (P05177 whole entry, looked up): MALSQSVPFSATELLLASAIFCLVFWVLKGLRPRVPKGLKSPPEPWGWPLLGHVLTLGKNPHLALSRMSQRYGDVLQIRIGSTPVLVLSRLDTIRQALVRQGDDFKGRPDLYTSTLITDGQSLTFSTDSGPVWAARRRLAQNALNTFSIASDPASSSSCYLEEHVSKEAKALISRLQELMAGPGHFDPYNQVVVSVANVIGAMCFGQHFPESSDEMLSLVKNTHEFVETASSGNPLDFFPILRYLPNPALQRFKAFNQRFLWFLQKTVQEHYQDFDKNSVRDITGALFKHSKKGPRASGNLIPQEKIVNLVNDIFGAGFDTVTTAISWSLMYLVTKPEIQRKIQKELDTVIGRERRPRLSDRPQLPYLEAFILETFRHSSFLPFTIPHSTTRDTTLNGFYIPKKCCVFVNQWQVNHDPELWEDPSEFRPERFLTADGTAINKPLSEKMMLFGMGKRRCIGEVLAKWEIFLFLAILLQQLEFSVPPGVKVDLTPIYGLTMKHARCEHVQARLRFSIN
Assay: Cytochrome P450 Family 1 Subfamily A Member 2 (CYP1A2) small molecule antagonists: luciferase reporter qHTS assay (AID 1671199); also: nearly all actives have a fitted effect of over 50% in size
Settings: P450-Glo CYP1A2 enzyme, luciferin luminescence, 1 h; series mostly up to 115 µM
Results filed as inconclusive are left out. The source made the active and inactive calls. Calls come from the whole dose curve; as a rule, active = well fitted inhibition curve with a large enough effect in the repeat runs; inconclusive = weak or mixed curves; inactive = no such curve, though single readings can be large or run the other way.
Mark one answer only. Choices: Yes = active, No = inactive

Illustrative cases are given below, each with its answer.
C=C(C)C(=O)OCC1CO1 (stereo not drawn)
No
C=CCc1ccc2c(c1)OCO2
Yes
CC(C)=CC1C(C(=O)OCc2coc(Cc3ccccc3)c2)C1(C)C (stereo not drawn)
Yes

Prompt: What did the test return for Cc1cc(C)cc(C)c1 ?
Completion: No

Prompt: Item: Cc1ccccc1[N+](=O)[O-]
Completion: No

Prompt: Item: O=C1C=CC(=O)C=C1
Completion: Yes

Prompt: Item: CCOc1cc(Oc2ccc(C(F)(F)F)cc2Cl)ccc1[N+](=O)[O-]
Completion: Yes

Prompt: Item: CC(C)(OOC(C)(C)c1ccccc1)c1ccccc1
Completion: No

Prompt: Item: Clc1nc(Cl)nc(Cl)n1
Completion: No

Prompt: Item: Nc1cccnc1
Completion: No

Prompt: Item: O=C(O)CC[N+](=O)[O-]
Completion: No

Prompt: Item: CC(O)CCO (stereo not drawn)
Completion: No

Prompt: Item: CCC(C)(C)c1ccc(O)cc1
Completion: No

Prompt: Item: O=[N+]([O-])c1ccc(O)c([N+](=O)[O-])c1
Completion: No

Prompt: Item: C=C(C)[C@H]1Cc2c(ccc3c2O[C@@H]2COc4cc(OC)c(OC)cc4[C@@H]2C3=O)O1
Completion: No

Prompt: Item: O=Cc1ccco1
Completion: No

Prompt: Item: CC(C)NC(C)C
Completion: No

Prompt: Item: CC(C)(c1cc(Cl)c(O)c(Cl)c1)c1cc(Cl)c(O)c(Cl)c1
Completion: No

Prompt: Item: CCCCN(CC)c1c([N+](=O)[O-])cc(C(F)(F)F)cc1[N+](=O)[O-]
Completion: Yes

Prompt: Item: NCc1cccnc1
Completion: No

Prompt: Item: Cc1c(COC(=O)[C@@H]2[C@H](/C=C(\Cl)C(F)(F)F)C2(C)C)cccc1-c1ccccc1
Completion: No

Prompt: Item: Cc1cc(Cl)ccc1OCCCC(=O)O
Completion: No

Prompt: Item: Nc1ccc(-c2ccc(N)c(N)c2)cc1N
Completion: Yes
